Source: patent US8003801B2

The reader will find reported RAEpoB (relative activity), 1A9/A8 values listed item by item below.
tested on: 1A9/A8, EpoA-resistant 1A9 cell line (β274 Thr→Ile); assay: 72 hour growth-inhibition (cytotoxicity) assay, 1A9/A8 cells; type: cell-based, human; details: ratio of IC50 of EpoB to IC50 of the tested compound in the concurrent assay
No unit in the answer, only the number.

Molecule	Test result
C/C(=C\c1ccn(C)n1)[C@@H]1C[C@@H]2O[C@]2(C)CCC[C@H](C)[C@H](O)[C@@H](C)C(=O)C(C)(C)[C@@H](O)CC(=O)O1	12.5
C/C(=C\c1nc2ccccc2s1)[C@@H]1C[C@@H]2O[C@]2(C)CCC[C@H](C)[C@H](O)[C@@H](C)C(=O)C(C)(C)[C@@H](O)CC(=O)O1	14.3
CSc1nc(/C=C(\C)[C@@H]2C[C@@H]3O[C@]3(C)CCC[C@H](C)[C@H](O)[C@@H](C)C(=O)C(C)(C)[C@@H](O)CC(=O)O2)cs1 [Compound 3, reference compound]	5.0
CSc1nc(/C=C(\C)[C@@H]2C[C@@H]3C[C@]3(C)CCC[C@H](C)[C@H](O)[C@@H](C)C(=O)C(C)(C)[C@@H](O)CC(=O)O2)cs1 [Compound 4, reference compound]	2.7

With those in mind, consider the next molecule.
### Prompt Which RAEpoB (relative activity), 1A9/A8 is reported for this molecule? CSc1cc(/C=C(\C)[C@@H]2C[C@@H]3O[C@]3(C)CCC[C@H](C)[C@H](O)[C@@H](C)C(=O)C(C)(C)[C@@H](O)CC(=O)O2)nn1C
### Response 16.7
